- system: Polyunsaturated fatty acid lipoxygenase ALOX12 (Homo sapiens, UniProt P18054)
- Sequence (P18054 whole entry): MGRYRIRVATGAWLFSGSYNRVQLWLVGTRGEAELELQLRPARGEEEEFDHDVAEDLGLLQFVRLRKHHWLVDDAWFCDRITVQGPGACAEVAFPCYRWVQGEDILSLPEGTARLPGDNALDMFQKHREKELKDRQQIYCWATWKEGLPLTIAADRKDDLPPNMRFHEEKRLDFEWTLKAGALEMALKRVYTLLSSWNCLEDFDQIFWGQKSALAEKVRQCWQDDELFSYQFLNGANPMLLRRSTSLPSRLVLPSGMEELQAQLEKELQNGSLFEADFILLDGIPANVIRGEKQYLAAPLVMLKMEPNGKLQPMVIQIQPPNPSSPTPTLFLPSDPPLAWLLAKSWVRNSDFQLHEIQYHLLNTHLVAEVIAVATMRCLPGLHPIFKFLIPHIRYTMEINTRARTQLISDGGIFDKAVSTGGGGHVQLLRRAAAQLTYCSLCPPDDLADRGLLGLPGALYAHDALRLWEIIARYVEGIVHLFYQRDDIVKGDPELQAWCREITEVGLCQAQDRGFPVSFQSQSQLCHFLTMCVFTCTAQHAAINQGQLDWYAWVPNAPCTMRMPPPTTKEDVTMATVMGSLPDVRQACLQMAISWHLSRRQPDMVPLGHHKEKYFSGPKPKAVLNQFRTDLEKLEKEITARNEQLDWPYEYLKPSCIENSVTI
Recorded IC50 for molecules tested on Polyunsaturated fatty acid lipoxygenase ALOX12 (Homo sapiens, UniProt P18054), drawn from a number of studies.
experimental readout: IC50

>>> df
                                  structure  observed_measurement
0  CCCCCc1ccc(S(=O)(=O)NCCc2c(-c3ccccc3)[nH]c3ccccc23)cc1               > 10 µM
1  O=C(OCC#CCSc1nnc(-c2cccc3ccccc23)o1)c1cccc(F)c1              > 100 µM
2                             Oc1cccc(Br)c1              > 100 µM
3  CC(C)(c1cc(Br)c(O)c(Br)c1)c1cc(Br)c(O)c(Br)c1                 10 µM
4  CN1C(N)=N[C@]23CCCN2C(=O)c2cc(Br)c(Br)n2[C@H]13               10.7 µM
5  O=C(OCC#CCSc1nnc(-c2cccc3ccccc23)o1)c1ccccc1              > 100 µM
6                           CCOc1ccc(Br)cc1              > 100 µM
7  CCCCCc1ccc(S(=O)(=O)NCCc2c(-c3cc4ccccc4o3)[nH]c3ccccc23)cc1                > 3 µM
8  CCCCC/C=C\CC(=O)/C=C/C=C\C/C=C\CCCC(=O)O                  8 µM
